- experimental-details: Quantification of solubility by visual inspection for undissolved material
- Type: physicochemical
- condition-set: solubility in ChCl-urea DES relative to aqueous solution
measured-parameter: Enhancement factor

Lookup result for OC[C@H]1O[C@@H]2O[C@H]3[C@H](O)[C@@H](O)[C@@H](O[C@H]4[C@H](O)[C@@H](O)[C@@H](O[C@H]5[C@H](O)[C@@H](O)[C@@H](O[C@H]6[C@H](O)[C@@H](O)[C@@H](O[C@H]7[C@H](O)[C@@H](O)[C@@H](O[C@H]1[C@H](O)[C@H]2O)O[C@@H]7CO)O[C@@H]6CO)O[C@@H]5CO)O[C@@H]4CO)O[C@@H]3CO ; measured Enhancement factor: >3.5
